Test name: TRM-201-PK-102 single-dose four-period crossover pharmacokinetic study, fasted healthy subjects
Type: in vivo, human
Setup conditions: human, plasma, oral, 20 mg, 102 study, 41-52 years, read-out: arithmetic mean Cmax
Method: A Single-Dose, Open-Label, Phase 1, Four-Period Crossover Pharmacokinetic Study of TRM-201 (Rofecoxib) 12.5 mg, 17.5 mg, 20 mg and 25 mg Administered to Healthy Subjects in a Fasting State, with Comparison to Historical Pharmacokinetic Parameters of Previously Marketed Rofecoxib (“TRM-201-PK-102” or “102 PK Study”) […] In each of the four dosing periods, subjects fasted overnight for at least 10 hours before study drug dosing. […] Pharmacokinetic and safety endpoints were evaluated. […]

{"Structure smiles string": "CS(=O)(=O)c1ccc(C2=C(c3ccccc3)C(=O)OC2)cc1", "Cmax / ng/mL": 262}
